# Test system: SN12C renal
# test_description: NCI-60 one-dose screen, 48 h (100 = growth as untreated, 0 = no growth, -100 = all killed)
# protocol_conditions: 10 µM unless noted
About 83,000 compounds went through this panel and 20% of them were active in at least one assay; those are over-represented in the sample as a whole.
Assign class by growth: not lower than 40% means yes; lower than 40% means no.

Cc1nn(-c2ccccc2)c2c1N=c1s/c(=C\c3cn(-c4ccccc4)nc3-c3ccc(Cl)cc3)c(=O)n1C(C)N2 (stereo not drawn); yes
CC[C@@H]1C(=O)N(C)c2cnc(Nc3ccc(C(=O)NC4CCN(C)CC4)cc3OC)nc2N1C1CCCC1; no
CN1CCC(COc2cnc(-c3cccc(Cn4nc(-c5cccc(C#N)c5)ccc4=O)c3)nc2)CC1; yes
O=C(Cc1ccc(/C=C/C(=O)c2ncc[nH]2)cc1)Nc1ccc(S(F)(F)(F)(F)F)cc1; yes
Clc1nc(Cl)c2ncn(C/C=C\Cn3cnc4c(Cl)nc(Cl)nc43)c2n1; no
CC(=O)C(C(C)=O)C(c1ccccc1)C(C(C)=O)C(C)=O; yes

Exam item: Identify whether the reported growth of the following compound is 40% or greater: COCCN1CCN(Cc2ccc(-c3n[nH]c4c3C(=O)c3c(NC(=O)NN5CCOCC5)cccc3-4)cc2)CC1
Marked response: no

Exam item: Proceed to Cc1cc(C(O)CN(C)C)cc2c1ccc1cc(C(C)C)ccc12 (stereo not drawn)
Marked response: yes

Exam item: Same again, this time with CS(=O)(=O)CCNCc1ccc(-c2ccc3ncnc(Nc4ccc(OCc5cccc(F)c5)c(Cl)c4)c3c2)o1
Marked response: no

Exam item: Also, COc1cc(N2CCC(N3CCN(C)CC3)CC2)ccc1Nc1ncnc(Nc2ccccc2S(=O)(=O)C(C)C)n1 please.
Marked response: yes

Exam item: Would you kindly repeat that for Cc1sc2c(c1C)c(=O)nc1c(-c3nc4ccccc4s3)n[nH]n12 ?
Marked response: yes

Exam item: Check N#Cc1c(-c2ccc(C(F)(F)F)cc2)c(F)c(NCCC2CCC(O)C2)n2c1nc1ccccc12 (stereo not drawn) too.
Marked response: yes

Exam item: Also COc1ccc(CCCc2c3[n+](cc4c(OC)c(OC)ccc24)CCc2cc4c(cc2-3)OCO4)cc1 , if possible.
Marked response: yes

Exam item: // query: CCCCN1CCCC[C@@H]1C(=O)N[C@H](C(=O)N(C)[C@H](CCc1nc(C(=O)N[C@@H](Cc2ccccc2)C[C@H](C)C(=O)OC)cs1)C(C)C)C(C)C
Marked response: yes

Exam item: Also check COc1ccc2c(CCCC(c3ccccc3)c3ccccc3)c3[n+](cc2c1OC)CCc1cc2c(cc1-3)OCO2
Marked response: no

Exam item: Next: Cc1cccc(Cl)c1NC(=O)c1cnc(Nc2cc(N3CCOCC3)cc(S(C)(=O)=O)c2)s1
Marked response: no

Exam item: Entry CNC(=O)c1cnc(C)nc1-c1cc(C(C)(C)C)c(O)c(C(C)(C)C)c1 please
Marked response: yes

Exam item: Quick one: CC(C)=CCc1cc2c(cc1O)C1=C(C(=O)C3=C(C1=O)S(=O)(=O)CCN3)C(C=C(C)C)O2 (stereo not drawn)
Marked response: no

Exam item: Now the compound O=c1[nH]ccc2c(S(=O)(=O)N3CCCNCC3)cccc12
Marked response: yes

Exam item: Continue with COc1ccc(-c2ccc3c(N4CCOC[C@@H]4C)nc(N4CCOC[C@@H]4C)nc3n2)cc1CO
Marked response: no

Exam item: Also C[C@@H](Oc1cc(-n2cnc3ccc(CN4CCN(C)CC4)cc32)sc1C(N)=O)c1ccccc1C(F)(F)F ?
Marked response: no

Exam item: Field entry: COc1ccc(-n2c(=O)c3ccccc3n(Cc3ccc(C(=O)NO)cc3)c2=O)cc1
Marked response: no

Values from PubChem BioAssay (NCI)
